- System: STEME
- EXPERIMENTAL PROTOCOL: Biological efficacy, pre-emergence glasshouse test (Table 2)
- Type: in vivo
- STATED CONDITIONS: 1000 g/ha, after 12 days
score (100=total damage to plant, 0=no damage to plant) overview
READOUT LABEL: score (100=total damage to plant, 0=no damage to plant)

COMPOUND STRING: CCc1ccccc1C(F)(F)C(=O)O
READING: 0
--
COMPOUND STRING: O=C(O)C(F)(F)c1cccc2ccccc12
READING: 90
--
COMPOUND STRING: COc1ccc(C(F)(F)C(=O)O)cc1
READING: 0
--
COMPOUND STRING: CC(C)(C)c1ccc(C(F)(F)C(=O)O)cc1
READING: 20
--
COMPOUND STRING: COc1cc(F)c(C(F)(F)C(=O)O)cc1Cl.N
READING: 0
--
COMPOUND STRING: COc1ccc(Cl)cc1C(F)(F)C(=O)O
READING: 0
--
COMPOUND STRING: O=C(O)C(F)(F)c1ccc(OC(F)(F)F)c(Br)c1
READING: 0
--
COMPOUND STRING: CCOC(=O)C(F)(F)c1cccc2cccc(C(F)(F)C(=O)OCC)c12
READING: 60

* * *

pest or weed control at 1000 g/ha overview
- System: weeds and/or crops
- EXPERIMENTAL PROTOCOL: Post-emergence biological efficacy (Table 4)
- Format: in vivo
- STATED CONDITIONS: 312 h, ZEAMX, 1000 g/ha, evaluated after 13 days, read-out: damage to plant ZEAMX (100=total damage; 0=no damage)
READOUT LABEL: pest or weed control at 1000 g/ha

COMPOUND: N#Cc1c(F)ccc(C(F)(F)C(=O)O)c1Cl [Compound 1-460]
READOUT LABEL: pest or weed control at 1000 g/ha
READING: 10%

COMPOUND: Nc1cc(Cl)cc(C(F)(F)C(=O)O)c1Cl [Compound 1-235]
READOUT LABEL: pest or weed control at 1000 g/ha
READING: 20%

COMPOUND: O=C(O)C(F)(F)c1ccccc1OC(F)(F)F [Compound 1-465]
READOUT LABEL: pest or weed control at 1000 g/ha
READING: 20%

COMPOUND: CCOC(=O)C(F)(F)c1cccc2cccc(C(F)(F)C(=O)OCC)c12 [Compound 3-419]
READOUT LABEL: pest or weed control at 1000 g/ha
READING: 0%

COMPOUND: O=C(O)C(F)(F)c1cc(Cl)cc([N+](=O)[O-])c1Cl [Compound 1-238]
READOUT LABEL: pest or weed control at 1000 g/ha
READING: 0%

COMPOUND: CSc1c(C(F)(F)C(=O)O)ccc(Br)c1Cl [Compound 1-359]
READOUT LABEL: pest or weed control at 1000 g/ha
READING: 20%

COMPOUND: CSc1cccc(C(F)(F)C(=O)O)c1Cl [Compound 1-220]
READOUT LABEL: pest or weed control at 1000 g/ha
READING: 10%

COMPOUND: Nc1c(Cl)cc(Cl)cc1C(F)(F)C(=O)O [Compound 7-253]
READOUT LABEL: pest or weed control at 1000 g/ha
READING: 10%

COMPOUND: Nc1ccc(Cl)c(C(F)(F)C(=O)O)c1Cl [Compound 1-236]
READOUT LABEL: pest or weed control at 1000 g/ha
READING: 10%

COMPOUND: COc1cccc(C(F)(F)C(=O)O)c1Cl [Compound 1-209]
READOUT LABEL: pest or weed control at 1000 g/ha
READING: 10%

COMPOUND: O=C(O)C(F)(F)c1cccc(Cl)c1C1CC1 [Compound 1-428]
READOUT LABEL: pest or weed control at 1000 g/ha
READING: 10%

COMPOUND: CCOC(=O)C(F)(F)c1c(Cl)cccc1[N+](=O)[O-] [Compound 3-67]
READOUT LABEL: pest or weed control at 1000 g/ha
READING: 20%

COMPOUND: Nc1c(Cl)cccc1C(F)(F)C(=O)O [Compound 1-252]
READOUT LABEL: pest or weed control at 1000 g/ha
READING: 10%

COMPOUND: O=C(O)C(F)(F)c1cccc(O)c1 [Compound 1-5]
READOUT LABEL: pest or weed control at 1000 g/ha
READING: 10%

COMPOUND: C#Cc1cccc(C(F)(F)C(=O)O)c1Cl [Compound 1-208]
READOUT LABEL: pest or weed control at 1000 g/ha
READING: 70%

COMPOUND: O=C(O)C(F)(F)c1c(F)ccc2cccnc12 [Compound 1-406]
READOUT LABEL: pest or weed control at 1000 g/ha
READING: 40%

COMPOUND: COc1ccc(C(F)(F)C(=O)O)c([N+](=O)[O-])c1F [Compound 1-461]
READOUT LABEL: pest or weed control at 1000 g/ha
READING: 0%

COMPOUND: COc1ccc(Cl)c(C(F)(F)C(=O)O)c1 [Compound 1-62]
READOUT LABEL: pest or weed control at 1000 g/ha
READING: 20%

COMPOUND: COc1cccc(C(F)(F)C(=O)O)c1C [Compound 1-242]
READOUT LABEL: pest or weed control at 1000 g/ha
READING: 10%

COMPOUND: O=C(O)C(F)(F)c1cc(-c2ccc(F)cc2)ccc1Cl [Compound 1-64]
READOUT LABEL: pest or weed control at 1000 g/ha
READING: 40%

COMPOUND: O=C(O)C(F)(F)c1c(Cl)cccc1[N+](=O)[O-] [Compound 1-67]
READOUT LABEL: pest or weed control at 1000 g/ha
READING: 10%
